FYI, the data here is from paper PMC10987111.

Tested on: MDA-MB-231
Assay: Cell viability assay (CCK-8), MDA-MB-231
Assay type: cell-based, human
Conditions: Homo sapiens, MDA-MB-231, 72 h, read-out: IC50 MDA-MB-231
measurementName: IC50 (nM)
Give the value, in units of nM, as a plain number.

INSERT INTO measurements (molecule, measurementname, unitstext, reading) VALUES
  ('CCC1(O)C(=O)OCc2c1cc1n(c2=O)Cc2c-1nc1cc(F)c(C)c3c1c2C(NC(=O)CO)CC3 (centres unmarked) [DXd, reference compound]', 'IC50', 'nM', 25.8);

Enquiry: Given CC[C@@]1(O)C(=O)OCc2c1cc1n(c2=O)Cc2c-1nc1cc(F)c(C)c3c1c2[C@@H](NC(=O)C1(O)CCCC1)CC3 [Ed10] , state its recorded IC50.
Return: 5.17

====

Test system: SKBR-3
Assay: Cell viability assay (CCK-8), SKBR-3
Assay type: cell-based, human
Conditions: payloads, 3 days (72 h), HER2++; read-out: IC50 SKBR-3
pIC50: −log10 of the molar value.
Assign satisfied to entries whose pIC50 meets or exceeds 7; assign not satisfied to the rest.

INSERT INTO results (compound, labelclass) VALUES
  ('CC[C@@]1(O)C(=O)OCc2c1cc1n(c2=O)Cc2c-1nc1cc(F)c(C)c3c1c2[C@@H](NC(=O)C1(O)CCCCC1)CC3', 'satisfied'),
  ('CC[C@@]1(O)C(=O)OCc2c1cc1n(c2=O)Cc2c-1nc1cc(F)c(C)c3c1c2[C@@H](NC(=O)[C@H](O)C(C)C)CC3', 'satisfied'),
  ('CC[C@@]1(O)C(=O)OCc2c1cc1n(c2=O)Cc2c-1nc1cc(F)c(C)c3c1c2[C@@H](NC(=O)C(O)c1ccccc1)CC3 (single isomer, unassigned) [Ed4]', 'satisfied'),
  ('CC[C@@]1(O)C(=O)OCc2c1cc1n(c2=O)Cc2c-1nc1cc(F)c(C)c3c1c2[C@@H](NC(=O)C(O)C(F)(F)F)CC3 (stereo partly drawn)', 'satisfied');

We next turn to a different compound, shown below.
Enquiry: Has CC[C@@]1(O)C(=O)OCc2c1cc1n(c2=O)Cc2c-1nc1cc(F)c(C)c3c1c2[C@@H](NC(=O)C[C@@H](O)c1ccccc1)CC3 a recorded pIC50 greater than or equal to 7?
Return: not satisfied

====

Papp at 4 h, 10 µM reference
Experiment: Parallel artificial membrane permeability assay (PAMPA)
Type: in vitro ADME
Conditions: PAMPA
Kindly format the answer as number then unit.

INSERT INTO results (compound, reading) VALUES
  ('CC[C@@]1(O)C(=O)OCc2c1cc1n(c2=O)Cc2c-1nc1cc(F)c(C)c3c1c2[C@@H](NC(=O)C1(O)CCC1)CC3 [Ed9]', '5.66 ×10⁻⁶ cm/s');

Pending compound:
Enquiry: Given CC[C@@]1(O)C(=O)OCc2c1cc1n(c2=O)Cc2c-1nc1cc(F)c(C)c3c1c2[C@@H](NC(=O)C(C)(C)O)CC3 [Ed8] , state its recorded Papp at 4 h, 10 µM.
Return: 5.74 ×10⁻⁶ cm/s

====

IC50 reference
Tested on: SKBR-3
Test: Cell viability assay (CCK-8), SKBR-3
Type: cell-based, human
Conditions: Homo sapiens, SK-BR-3, 72 h, read-out: IC50 SKBR-3
Procedure: Cells were seeded in a 96‐well plate at 1000–4000 cells per well for different cell lines. After overnight incubation, serially diluted samples (100 µL) were added to each well, and the plate was incubated at 37°C for 72 h (payloads) or 108 h (ADCs). […] After gently agitating the plate, the absorbance at 450 nm was recorded using a BioTek Synergy microplate reader. EC50 values were calculated using GraphPad Prism 9.3 software. […]
Give the value, in units of nM, as a plain number.

// solved cases for IC50 follow
INSERT INTO measurements (molecule, reading) VALUES
  ('CC[C@@]1(O)C(=O)OCc2c1cc1n(c2=O)Cc2c-1nc1cc(F)c(C)c3c1c2[C@@H](NC(=O)C1(O)CCCC1)CC3', 17.8),
  ('CC[C@@]1(O)C(=O)OCc2c1cc1n(c2=O)Cc2c-1nc1cc(F)c(C)c3c1c2[C@@H](NC(=O)[C@@H](O)C(C)C)CC3', 129);

Pending molecule:
Enquiry: Given CCC1(O)C(=O)OCc2c1cc1n(c2=O)Cc2c-1nc1cc(F)c(C)c3c1c2C(NC(=O)CO)CC3 (stereo not drawn) [DXd, reference compound] , state its recorded IC50.
Return: 73.9
